target: PI3-kinase p110-alpha/p85-alpha (Homo sapiens, UniProt P42336, H1047R); test: Inhibition of recombinant human full length PI3K p110alpha/p85alpha H1047R mutant using phosphatidylinositol 4,5-bisphosphate as substrate incubated for 40 mins in presence of [gamma33P]ATP by radiometric scintillation counting analysis
Sequence (P42336 whole entry H1047R, looked up): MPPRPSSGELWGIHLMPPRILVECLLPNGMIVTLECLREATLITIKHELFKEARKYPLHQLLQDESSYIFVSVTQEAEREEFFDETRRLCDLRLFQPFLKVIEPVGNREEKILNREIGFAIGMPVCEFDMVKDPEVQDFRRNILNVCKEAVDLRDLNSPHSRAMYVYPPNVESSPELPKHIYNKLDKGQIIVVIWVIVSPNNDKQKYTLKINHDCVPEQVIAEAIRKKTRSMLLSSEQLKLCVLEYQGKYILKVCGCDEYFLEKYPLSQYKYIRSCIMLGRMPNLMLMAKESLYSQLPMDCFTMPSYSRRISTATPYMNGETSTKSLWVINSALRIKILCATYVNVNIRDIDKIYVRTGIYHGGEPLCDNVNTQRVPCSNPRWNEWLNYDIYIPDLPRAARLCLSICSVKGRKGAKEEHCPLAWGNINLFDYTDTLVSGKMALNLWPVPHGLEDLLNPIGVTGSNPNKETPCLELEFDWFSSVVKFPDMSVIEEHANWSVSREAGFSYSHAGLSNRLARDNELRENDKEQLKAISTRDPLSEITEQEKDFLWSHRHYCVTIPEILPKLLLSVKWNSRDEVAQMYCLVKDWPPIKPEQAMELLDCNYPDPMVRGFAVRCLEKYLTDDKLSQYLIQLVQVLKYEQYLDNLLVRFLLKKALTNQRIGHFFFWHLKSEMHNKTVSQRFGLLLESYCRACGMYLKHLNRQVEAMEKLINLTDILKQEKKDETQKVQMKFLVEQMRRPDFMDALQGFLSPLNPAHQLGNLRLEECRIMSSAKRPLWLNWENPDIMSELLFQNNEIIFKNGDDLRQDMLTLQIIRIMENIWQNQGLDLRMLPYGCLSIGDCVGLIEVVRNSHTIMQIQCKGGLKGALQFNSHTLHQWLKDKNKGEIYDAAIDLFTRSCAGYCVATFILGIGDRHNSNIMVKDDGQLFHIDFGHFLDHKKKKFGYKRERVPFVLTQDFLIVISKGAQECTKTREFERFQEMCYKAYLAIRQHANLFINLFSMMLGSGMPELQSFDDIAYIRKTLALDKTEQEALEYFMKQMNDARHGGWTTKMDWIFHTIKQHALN
quantity: IC50

Answer with the recorded IC50 of CN(C)c1ccc(C(=O)Nc2cccc(NC(=O)COc3ccc4c(=O)ccoc4c3)c2)cc1 only.
> 10 µM

###

biological target: Tyrosine-protein kinase receptor UFO (Homo sapiens, UniProt P30530, Q764R); assay: Inhibition of human recombinant Axl Q764R mutant (473 to end residues) using KKSRGDYMTMQIG as substrate measured after 40 mins in presence of [gamma33P]ATP by radiometric scintillation counting analysis
Sequence (P30530 26-894 Q764R limits assumed): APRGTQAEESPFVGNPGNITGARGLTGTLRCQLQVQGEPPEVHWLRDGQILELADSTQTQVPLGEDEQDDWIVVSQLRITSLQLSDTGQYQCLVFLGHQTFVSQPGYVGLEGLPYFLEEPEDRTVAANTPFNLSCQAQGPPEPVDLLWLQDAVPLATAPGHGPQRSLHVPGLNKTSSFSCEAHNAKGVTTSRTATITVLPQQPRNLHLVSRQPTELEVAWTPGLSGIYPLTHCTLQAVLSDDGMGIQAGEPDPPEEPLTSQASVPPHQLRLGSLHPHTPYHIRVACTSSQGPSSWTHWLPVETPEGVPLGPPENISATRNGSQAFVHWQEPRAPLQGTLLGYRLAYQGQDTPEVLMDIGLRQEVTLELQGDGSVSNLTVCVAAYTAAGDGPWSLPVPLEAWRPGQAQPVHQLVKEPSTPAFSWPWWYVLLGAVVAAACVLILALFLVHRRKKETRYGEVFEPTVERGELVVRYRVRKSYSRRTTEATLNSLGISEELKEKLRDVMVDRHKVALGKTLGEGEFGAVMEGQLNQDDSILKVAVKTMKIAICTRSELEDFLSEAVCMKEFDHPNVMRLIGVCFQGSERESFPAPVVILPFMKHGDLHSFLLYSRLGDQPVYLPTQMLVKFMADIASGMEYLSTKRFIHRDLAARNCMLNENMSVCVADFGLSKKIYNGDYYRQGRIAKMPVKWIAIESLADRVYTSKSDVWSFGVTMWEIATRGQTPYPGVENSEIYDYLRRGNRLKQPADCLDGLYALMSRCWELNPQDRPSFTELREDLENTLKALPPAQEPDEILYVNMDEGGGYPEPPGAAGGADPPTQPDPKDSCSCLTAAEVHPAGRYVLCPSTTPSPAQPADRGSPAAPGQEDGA
quantity: IC50

Answer with the recorded IC50 of CN(C)c1ccc(C(=O)Nc2cccc(NC(=O)COc3ccc4c(=O)ccoc4c3)c2)cc1 only.
> 10 µM

###

assay: Inhibition of recombinant human Ros V2262A mutant (1883 to end residues) using KKKSPGEYVNIEFG as substrate incubated for 40 mins in presence of [gamma33P]ATP by radiometric scintillation counting analysis
pIC50: −log10 of the molar value.
quantity: pIC50

Answer with the recorded pIC50 of CN(C)c1ccc(C(=O)Nc2cccc(NC(=O)COc3ccc4c(=O)ccoc4c3)c2)cc1 only.
< 5.00

###

molecular target: Homeodomain-interacting protein kinase 4 (Homo sapiens, UniProt Q8NE63); assay: Inhibition of human recombinant full length HIPK4 using RRRFRPASPLRGP as substrate after 40 mins by [gamma-33ATP] radiometric assay
Sequence (Q8NE63 whole entry): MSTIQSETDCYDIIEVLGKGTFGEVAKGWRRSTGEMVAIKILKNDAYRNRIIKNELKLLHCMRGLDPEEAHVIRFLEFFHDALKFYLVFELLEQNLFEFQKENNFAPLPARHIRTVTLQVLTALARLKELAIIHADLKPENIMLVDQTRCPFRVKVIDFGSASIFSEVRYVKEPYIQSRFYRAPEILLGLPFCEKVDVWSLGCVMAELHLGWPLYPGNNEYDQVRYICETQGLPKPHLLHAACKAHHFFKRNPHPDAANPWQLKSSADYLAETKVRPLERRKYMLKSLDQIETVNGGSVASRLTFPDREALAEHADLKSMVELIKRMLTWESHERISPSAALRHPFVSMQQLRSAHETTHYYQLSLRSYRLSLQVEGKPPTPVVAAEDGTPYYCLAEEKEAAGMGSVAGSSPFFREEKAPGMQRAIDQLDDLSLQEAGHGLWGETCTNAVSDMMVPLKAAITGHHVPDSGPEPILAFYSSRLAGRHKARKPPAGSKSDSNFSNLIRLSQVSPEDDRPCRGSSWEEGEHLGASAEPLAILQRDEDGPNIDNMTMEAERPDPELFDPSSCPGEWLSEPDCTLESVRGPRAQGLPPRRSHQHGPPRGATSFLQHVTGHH
pIC50: −log10 of the molar value.
quantity: pIC50

Answer with the recorded pIC50 of CN(C)c1ccc(C(=O)Nc2cccc(NC(=O)COc3ccc4c(=O)ccoc4c3)c2)cc1 only.
< 5.00

###

test: Inhibition of human recombinant full length AURORA-A I31F mutant using kemptide as substrate incubated for 40 mins in presence of [gamma-33P]ATPand 10 uM ATP by radiometric scintillation counting analysis
quantity: IC50 (nM)
The figure you give is taken to be in nM; do not add the unit.

Answer with the recorded IC50 of CN(C)c1ccc(C(=O)Nc2cccc(NC(=O)COc3ccc4c(=O)ccoc4c3)c2)cc1 only.
1070

###

Biological target: Beta-adrenergic receptor kinase 1 (Homo sapiens, UniProt P25098)
Sequence (P25098 whole entry): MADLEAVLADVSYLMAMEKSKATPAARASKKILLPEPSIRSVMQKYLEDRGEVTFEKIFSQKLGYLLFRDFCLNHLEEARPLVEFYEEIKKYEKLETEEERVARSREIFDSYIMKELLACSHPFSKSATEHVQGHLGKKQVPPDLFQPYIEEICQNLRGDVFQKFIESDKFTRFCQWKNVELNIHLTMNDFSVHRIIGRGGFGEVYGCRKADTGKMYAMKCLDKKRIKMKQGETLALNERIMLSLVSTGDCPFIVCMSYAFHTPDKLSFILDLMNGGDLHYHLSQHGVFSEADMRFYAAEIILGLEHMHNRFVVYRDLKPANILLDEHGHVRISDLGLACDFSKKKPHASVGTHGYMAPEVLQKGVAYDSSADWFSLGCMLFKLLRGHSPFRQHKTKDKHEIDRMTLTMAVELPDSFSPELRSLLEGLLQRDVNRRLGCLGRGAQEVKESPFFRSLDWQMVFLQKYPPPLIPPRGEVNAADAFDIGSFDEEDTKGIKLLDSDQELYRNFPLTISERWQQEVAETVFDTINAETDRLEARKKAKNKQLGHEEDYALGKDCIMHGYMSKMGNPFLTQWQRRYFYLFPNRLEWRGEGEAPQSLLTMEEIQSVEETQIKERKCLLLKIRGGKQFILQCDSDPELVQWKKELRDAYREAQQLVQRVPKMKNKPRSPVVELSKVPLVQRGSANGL
Assay: Inhibition of recombinant full length human GRK2 using casein as substrate after 40 mins in presence of [gamma-33ATP] by radiometric scintillation counting analysis
pIC50: −log10 of the molar value.
quantity: pIC50

Answer with the recorded pIC50 of CN(C)c1ccc(C(=O)Nc2cccc(NC(=O)COc3ccc4c(=O)ccoc4c3)c2)cc1 only.
< 5.00

###

target: Serine/threonine-protein kinase BRSK2 (Homo sapiens); assay: Inhibition of recombinant human BRSK2 (2 to end residues) using KKLNRTLSFAEPG substrate incubated for 40 mins in presence of [gamma-33ATP] by radiometric scintillation counting analysis
pIC50: −log10 of the molar value.
quantity: pIC50

Answer with the recorded pIC50 of CN(C)c1ccc(C(=O)Nc2cccc(NC(=O)COc3ccc4c(=O)ccoc4c3)c2)cc1 only.
< 5.00

###

Target: UniProt Q9H093
Sequence (Q9H093 whole entry): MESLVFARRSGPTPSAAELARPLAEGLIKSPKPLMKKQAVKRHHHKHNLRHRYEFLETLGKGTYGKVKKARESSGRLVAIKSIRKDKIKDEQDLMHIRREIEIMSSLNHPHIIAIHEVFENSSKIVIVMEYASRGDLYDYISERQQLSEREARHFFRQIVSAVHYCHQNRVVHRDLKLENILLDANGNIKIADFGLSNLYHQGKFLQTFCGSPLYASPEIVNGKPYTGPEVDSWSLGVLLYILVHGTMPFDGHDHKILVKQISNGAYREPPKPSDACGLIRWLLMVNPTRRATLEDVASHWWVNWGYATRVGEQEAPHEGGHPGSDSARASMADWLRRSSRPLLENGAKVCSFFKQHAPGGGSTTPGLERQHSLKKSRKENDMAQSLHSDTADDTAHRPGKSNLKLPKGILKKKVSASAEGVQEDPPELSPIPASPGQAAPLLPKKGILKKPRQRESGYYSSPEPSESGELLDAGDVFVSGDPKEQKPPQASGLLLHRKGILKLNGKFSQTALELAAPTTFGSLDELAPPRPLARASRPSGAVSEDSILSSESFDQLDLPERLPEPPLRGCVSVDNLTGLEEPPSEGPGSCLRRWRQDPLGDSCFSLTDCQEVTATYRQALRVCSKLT
Test: Inhibition of recombinant human full length NUAK2 using KKKVSRSGLYRSP as substrate measured after 40 mins in presence of [gamma33P]ATP by radiometric scintillation counting analysis
pIC50: −log10 of the molar value.
quantity: pIC50

Under UniProt Q9H093, report pIC50 for CN(C)c1ccc(C(=O)Nc2cccc(NC(=O)COc3ccc4c(=O)ccoc4c3)c2)cc1
< 5.00

###

target: Ribosomal protein S6 kinase alpha-5 (Homo sapiens); test: Inhibition of recombinant human MSK1 (2 to end residues) using GRPRTSSFAEGKK as substrate incubated for 40 mins in presence of [gamma-33ATP by radiometric scintillation counting analysis
pIC50: −log10 of the molar value.
quantity: pIC50

Answer with the recorded pIC50 of CN(C)c1ccc(C(=O)Nc2cccc(NC(=O)COc3ccc4c(=O)ccoc4c3)c2)cc1 only.
< 5.00

###

target: Epidermal growth factor receptor (Homo sapiens, UniProt P00533); test: Inhibition of recombinant human EGFR (696 to end residues) using poly(Glu, Tyr) 4:1 as substrate after 40 mins in presence of [gamma-33ATP] by radiometric scintillation counting analysis
quantity: IC50

Under Epidermal growth factor receptor (Homo sapiens, UniProt P00533), report IC50 for CN(C)c1ccc(C(=O)Nc2cccc(NC(=O)COc3ccc4c(=O)ccoc4c3)c2)cc1
> 10 µM

###

target: Protein kinase C beta type (Homo sapiens, UniProt P05771); assay: Inhibition of recombinant human PKCbeta1 (2 to end residues) using histone H1 as substrate incubated for 40 mins in presence of [gamma33P]ATP by radiometric scintillation counting analysis
pIC50: −log10 of the molar value.
quantity: pIC50

Under Protein kinase C beta type (Homo sapiens, UniProt P05771), report pIC50 for CN(C)c1ccc(C(=O)Nc2cccc(NC(=O)COc3ccc4c(=O)ccoc4c3)c2)cc1
< 5.00

###

target: Serine/threonine-protein kinase PAK 6 (Homo sapiens, UniProt Q9NQU5); experiment: Inhibition of recombinant human PAK6 (382 to end residues) using RRRLSFAEPG as substrate measured after 40 mins in presence of [gamma33P]ATP by radiometric scintillation counting analysis
Sequence (Q9NQU5 whole entry): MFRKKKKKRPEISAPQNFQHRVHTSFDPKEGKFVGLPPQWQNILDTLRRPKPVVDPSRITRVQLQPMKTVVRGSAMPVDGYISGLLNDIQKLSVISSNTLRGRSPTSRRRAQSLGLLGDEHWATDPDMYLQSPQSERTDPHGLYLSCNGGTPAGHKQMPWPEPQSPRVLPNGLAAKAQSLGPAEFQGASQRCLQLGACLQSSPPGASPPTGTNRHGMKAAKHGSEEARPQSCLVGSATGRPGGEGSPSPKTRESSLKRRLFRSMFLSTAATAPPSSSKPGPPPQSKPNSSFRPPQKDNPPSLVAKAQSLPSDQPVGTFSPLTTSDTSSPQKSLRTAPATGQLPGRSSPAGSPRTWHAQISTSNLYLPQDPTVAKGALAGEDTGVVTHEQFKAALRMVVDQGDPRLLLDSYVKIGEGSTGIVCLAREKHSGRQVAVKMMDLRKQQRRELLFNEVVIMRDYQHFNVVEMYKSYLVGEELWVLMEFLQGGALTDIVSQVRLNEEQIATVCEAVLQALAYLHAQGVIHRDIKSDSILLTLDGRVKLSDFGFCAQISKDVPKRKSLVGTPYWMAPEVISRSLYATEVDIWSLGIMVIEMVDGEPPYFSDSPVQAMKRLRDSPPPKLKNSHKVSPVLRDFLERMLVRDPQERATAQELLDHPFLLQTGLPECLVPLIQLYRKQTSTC
pIC50: −log10 of the molar value.
quantity: pIC50

Answer with the recorded pIC50 of CN(C)c1ccc(C(=O)Nc2cccc(NC(=O)COc3ccc4c(=O)ccoc4c3)c2)cc1 only.
< 5.00

###

target: UniProt:P49841; assay: Inhibition of human GSK-3beta H350L mutant (2 to end residues) using YRRAAVPPSPSLSR as substrate after 40 mins by [gamma-33ATP] radiometric assay
Sequence (P49841 whole entry): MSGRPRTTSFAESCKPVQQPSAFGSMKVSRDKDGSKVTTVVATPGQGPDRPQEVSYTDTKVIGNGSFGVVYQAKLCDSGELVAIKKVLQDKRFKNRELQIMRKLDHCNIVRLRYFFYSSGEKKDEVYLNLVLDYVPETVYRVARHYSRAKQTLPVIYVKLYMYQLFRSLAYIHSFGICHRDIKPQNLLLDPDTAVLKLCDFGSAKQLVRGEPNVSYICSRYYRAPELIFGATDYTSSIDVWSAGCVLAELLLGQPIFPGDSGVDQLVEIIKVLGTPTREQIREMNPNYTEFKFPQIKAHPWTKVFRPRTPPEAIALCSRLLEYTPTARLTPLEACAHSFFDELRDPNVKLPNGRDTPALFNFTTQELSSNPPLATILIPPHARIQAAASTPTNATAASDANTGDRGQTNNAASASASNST
pIC50: −log10 of the molar value.
quantity: pIC50

Answer with the recorded pIC50 of CN(C)c1ccc(C(=O)Nc2cccc(NC(=O)COc3ccc4c(=O)ccoc4c3)c2)cc1 only.
< 5.00

###

biological target: PAS domain-containing serine/threonine-protein kinase (Homo sapiens); assay: Inhibition of recombinant human PASK (995 to end residues) using KKLNRTLSFAEPG as substrate measured after 40 mins in presence of [gamma33P]ATP by radiometric scintillation counting analysis
Sequence (Q96RG2 whole entry, the tested form may be a part): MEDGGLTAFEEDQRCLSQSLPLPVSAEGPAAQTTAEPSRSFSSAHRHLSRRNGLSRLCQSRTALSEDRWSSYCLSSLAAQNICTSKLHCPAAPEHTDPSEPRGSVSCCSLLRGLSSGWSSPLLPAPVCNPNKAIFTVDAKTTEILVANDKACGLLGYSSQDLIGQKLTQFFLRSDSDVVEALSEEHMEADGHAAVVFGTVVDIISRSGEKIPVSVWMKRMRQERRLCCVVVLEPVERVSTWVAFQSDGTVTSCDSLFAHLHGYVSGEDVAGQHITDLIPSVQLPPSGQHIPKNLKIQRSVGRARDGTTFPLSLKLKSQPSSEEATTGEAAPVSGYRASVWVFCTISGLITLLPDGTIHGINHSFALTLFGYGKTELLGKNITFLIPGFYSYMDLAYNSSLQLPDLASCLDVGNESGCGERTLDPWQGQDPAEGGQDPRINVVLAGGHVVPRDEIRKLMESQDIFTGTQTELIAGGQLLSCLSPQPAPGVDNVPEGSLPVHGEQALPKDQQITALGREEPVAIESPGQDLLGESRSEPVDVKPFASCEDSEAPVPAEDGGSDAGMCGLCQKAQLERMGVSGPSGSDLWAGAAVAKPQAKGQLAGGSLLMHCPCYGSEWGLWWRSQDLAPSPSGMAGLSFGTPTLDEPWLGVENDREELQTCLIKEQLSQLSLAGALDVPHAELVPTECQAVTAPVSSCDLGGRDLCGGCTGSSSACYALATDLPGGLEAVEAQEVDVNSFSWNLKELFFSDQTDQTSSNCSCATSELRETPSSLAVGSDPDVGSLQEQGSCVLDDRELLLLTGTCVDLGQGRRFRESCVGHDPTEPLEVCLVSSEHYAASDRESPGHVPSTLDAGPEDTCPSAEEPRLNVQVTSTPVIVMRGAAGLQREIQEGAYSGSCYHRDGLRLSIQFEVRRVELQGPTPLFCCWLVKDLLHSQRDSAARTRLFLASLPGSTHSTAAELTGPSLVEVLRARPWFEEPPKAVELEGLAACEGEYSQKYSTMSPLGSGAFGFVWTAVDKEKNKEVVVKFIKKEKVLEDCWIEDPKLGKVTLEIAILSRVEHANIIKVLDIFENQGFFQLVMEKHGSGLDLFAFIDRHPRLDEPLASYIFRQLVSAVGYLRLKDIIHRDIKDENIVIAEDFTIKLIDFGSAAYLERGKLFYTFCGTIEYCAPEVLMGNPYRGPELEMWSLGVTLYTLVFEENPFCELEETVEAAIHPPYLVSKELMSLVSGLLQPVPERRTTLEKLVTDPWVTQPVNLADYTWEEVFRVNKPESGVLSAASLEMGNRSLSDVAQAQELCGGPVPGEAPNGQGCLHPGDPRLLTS
pIC50: −log10 of the molar value.
quantity: pIC50

Answer with the recorded pIC50 of CN(C)c1ccc(C(=O)Nc2cccc(NC(=O)COc3ccc4c(=O)ccoc4c3)c2)cc1 only.
< 5.00
